test_details: Inverse agonist activity at RORgammat in rat whole blood assessed as IL-17A production incubated for 1 hrs by ELISA analysis
Format: tissue-based
pIC50: −log10 of the molar value.
property_name: pIC50

• C[C@H]1CCCN1C(=O)c1nc(C(=O)NCC(C)(C)O)sc1-c1ccc(C(O)(C(F)(F)F)C(F)(F)F)c(Cl)c1Cl = 6.92

---

test_details: Solubility of compound in FaSSIF
Assay type: physicochemical
In this section we review reported log10 of solubility values for a set of molecules.
property_name: log10 of solubility (log10 of the value in µM)

• C[C@H]1CCCCN1C(=O)c1nc(C(=O)NCC(C)(C)O)sc1-c1ccc(C(O)(C(F)(F)F)C(F)(F)F)cc1Cl = 1.89
• Cc1cc(C(O)(C(F)(F)F)C(F)(F)F)ccc1-c1sc(C(=O)NCC(C)(C)O)nc1C(=O)N1CCCC[C@@H]1C = 0.66
• C[C@H]1CCCN1C(=O)c1nc(C(=O)NCC(C)(C)O)sc1-c1ccc(C(O)(C(F)(F)F)C(F)(F)F)cc1Cl = 2.11
• C[C@H]1CCCCN1C(=O)c1nc(C(=O)NCC(C)(C)O)sc1-c1ccc(C(O)(C(F)(F)F)C(F)(F)F)cc1C(F)F = 1.15
• C[C@H]1CCCN1C(=O)c1nc(C(=O)NCC(C)(C)O)sc1-c1ccc(C(O)(C(F)(F)F)C(F)(F)F)cc1C(F)F = 2.00
• Cc1cc(C(O)(C(F)(F)F)C(F)(F)F)ccc1-c1sc(C(=O)NCC(C)(C)O)nc1C(=O)N1CCC[C@@H]1C = 2.40

Reference for the values: ChEMBL document CHEMBL6134884
